target or test system: cardiac troponin C (V44Q TnC IAANS T53C) (Homo sapiens, UniProt P63316)
protocol description: IAANS fluorescence titration
measured quantity: Kd (nM)
Numbers only, in nM.

# Kd lookup, item cardiac troponin I peptide TnI128-180 128-180 (protein) LTQKIFDLRGKFKRPTLRRVRISADAMMQALLGARAKESLDLRAHLKQVKKED 262
